# assayed.system: postjunctional alpha1 receptors
# measurement.protocol: postjunctional alpha1 agonist activity (EC50), isolated segment of rabbit ear artery
# test.context: smooth muscle tension, dose producing 50% of the maximum response (norepinephrine)
Counter-ions that a name gives are not always drawn.
readout.name: EC50 (nM)
Write the value in nM as a bare number.

Req: Using the record for COc1ccc(OC)c2c1CCC1NCCCC21 (stereo not shown) [hydrochloride] , report its EC50.
Resp: 190
